Source of measurements: the supplement of paper PMC10307832

# Test system: PC-14
# ASSAY: relative viability (nuclei count vs DMSO), 5 days (fraction); higher = more cells survive
# ASSAY_CONTEXT: first compound 0.1 µM
MEASUREMENT_LABEL: relative viability
No unit in the answer, only the number.

Previously resolved entries follow.
{"COMPOUND": "O=c1cc(N2CCOCC2)oc2c(-c3cccc4c3sc3ccccc34)cccc12 + CC(=O)c1c(C)c2cnc(Nc3ccc(N4CCNCC4)cn3)nc2n(C2CCCC2)c1=O [Palbociclib] (partner 0.5 µM)", "MEASUREMENT_LABEL": "relative viability", "TEST_RESULT": 0.541}
{"COMPOUND": "O=c1cc(N2CCOCC2)oc2c(-c3cccc4c3sc3ccccc34)cccc12 + Nc1nc2[nH]cc(CCc3ccc(C(=O)N[C@@H](CCC(=O)O)C(=O)O)cc3)c2c(=O)[nH]1 [Pemetrexed] (partner 0.2 µM)", "MEASUREMENT_LABEL": "relative viability", "TEST_RESULT": 0.131}

Task item: Entry under review: O=c1cc(N2CCOCC2)oc2c(-c3cccc4c3sc3ccccc34)cccc12 + NC(=O)Nc1cc(-c2cccc(F)c2)sc1C(=O)N[C@H]1CCCNC1 [AZD7762] (partner 0.2 µM) . Reported relative viability?
Reply: 0.116

----------
# Test system: NCI-H2085
# ASSAY: relative viability (nuclei count vs DMSO), 5 days (fraction); higher = more cells survive
# ASSAY_CONTEXT: first compound 0.8 µM
// thresholds for relative viability classes: band A (below 0.5), band B (0.5 to below 0.8), band C (0.8 or more)

Solved entries:
{"MOLECULE": "O=c1cc(-c2cccc3c2Sc2ccccc2S3)oc(N2CCOCC2)c1 + N=C(N)NC(=N)NCCc1ccccc1 [Phenformin] (partner 250 µM)", "ASSIGNED_LABEL": "band B"}
{"MOLECULE": "O=c1cc(-c2cccc3c2Sc2ccccc2S3)oc(N2CCOCC2)c1 + COc1cc2c(Oc3ccc(NC(=O)C4(C(=O)Nc5ccc(F)cc5)CC4)cc3F)ccnc2cc1OCCCN1CCOCC1 [Foretinib] (partner 0.25 µM)", "ASSIGNED_LABEL": "band C"}
{"MOLECULE": "COc1nc(C)cnc1NS(=O)(=O)c1cccnc1-c1ccc(-c2nnco2)cc1 [Zibotentan] + CS(=O)(=O)N1CCN(Cc2cc3nc(-c4cccc5[nH]ncc45)nc(N4CCOCC4)c3s2)CC1 [Pictilisib] (partner 1 µM)", "ASSIGNED_LABEL": "band A"}
{"MOLECULE": "COc1nc(C)cnc1NS(=O)(=O)c1cccnc1-c1ccc(-c2nnco2)cc1 [Zibotentan] + CC1(C)CCC(c2ccc(Cl)cc2)=C(CN2CCN(c3ccc(C(=O)NS(=O)(=O)c4ccc(N[C@H](CCN5CCOCC5)CSc5ccccc5)c(S(=O)(=O)C(F)(F)F)c4)cc3)CC2)C1 [Navitoclax] (partner 0.5 µM)", "ASSIGNED_LABEL": "band C"}
{"MOLECULE": "COc1nc(C)cnc1NS(=O)(=O)c1cccnc1-c1ccc(-c2nnco2)cc1 [Zibotentan] + CC(C)C[C@H](NC(=O)[C@H](Cc1ccccc1)NC(=O)c1cnccn1)B(O)O [Bortezomib] (partner 0.002 µM)", "ASSIGNED_LABEL": "band C"}
{"MOLECULE": "COc1nc(C)cnc1NS(=O)(=O)c1cccnc1-c1ccc(-c2nnco2)cc1 [Zibotentan] + Nc1ncn([C@H]2C[C@H](O)[C@@H](CO)O2)c(=O)n1 [Decitabine] (partner 2 µM)", "ASSIGNED_LABEL": "band B"}

Task item: Band for the recorded relative viability of COc1nc(C)cnc1NS(=O)(=O)c1cccnc1-c1ccc(-c2nnco2)cc1 [Zibotentan] + Cc1cc(Nc2cc(N3CCN(C)CC3)nc(Sc3ccc(NC(=O)C4CC4)cc3)n2)n[nH]1 [Tozasertib] (partner 0.1 µM) ?
Reply: band B

Task item: Class for COc1nc(C)cnc1NS(=O)(=O)c1cccnc1-c1ccc(-c2nnco2)cc1 [Zibotentan] + CS(=O)(=O)CCNCc1ccc(-c2ccc3ncnc(Nc4ccc(OCc5cccc(F)c5)c(Cl)c4)c3c2)o1 [Lapatinib] (partner 2 µM) ?
Reply: band B

Task item: // bin(item) where item = O=c1cc(-c2cccc3c2Sc2ccccc2S3)oc(N2CCOCC2)c1 + CCNC(=O)c1noc(-c2cc(C(C)C)c(O)cc2O)c1-c1ccc(CN2CCOCC2)cc1 [Luminespib] (partner 0.01 µM)
Reply: band A

Task item: Exercise: read the entry O=c1cc(-c2cccc3c2Sc2ccccc2S3)oc(N2CCOCC2)c1 + CC(=O)c1c(C)c2cnc(Nc3ccc(N4CCNCC4)cn3)nc2n(C2CCCC2)c1=O [Palbociclib] (partner 0.5 µM) and state which class it falls under.
Reply: band A

Task item: Which class does O=c1cc(-c2cccc3c2Sc2ccccc2S3)oc(N2CCOCC2)c1 + Nc1nc2[nH]cc(CCc3ccc(C(=O)N[C@@H](CCC(=O)O)C(=O)O)cc3)c2c(=O)[nH]1 [Pemetrexed] (partner 0.2 µM) fall in?
Reply: band C

Task item: Form: Item = COc1nc(C)cnc1NS(=O)(=O)c1cccnc1-c1ccc(-c2nnco2)cc1 [Zibotentan] + C[C@]1(O)C[C@@H](c2nc(-c3ccc4ccc(-c5ccccc5)nc4c3)c3c(N)nccn32)C1 [Linsitinib] (partner 1 µM) ; Class = ?
Reply: band C

Task item: Band for the recorded relative viability of COc1nc(C)cnc1NS(=O)(=O)c1cccnc1-c1ccc(-c2nnco2)cc1 [Zibotentan] + O=C(CCCCCCC(=O)Nc1ccccc1)NO [Vorinostat] (partner 1 µM) ?
Reply: band B

Task item: Pick a category. Item: COc1nc(C)cnc1NS(=O)(=O)c1cccnc1-c1ccc(-c2nnco2)cc1 [Zibotentan] + CC(=O)Nc1cccc(-n2c(=O)n(C3CC3)c(=O)c3c(Nc4ccc(I)cc4F)n(C)c(=O)c(C)c32)c1 [Trametinib] (partner 0.02 µM)
Reply: band B

Task item: Kindly state the category for this molecule: O=c1cc(-c2cccc3c2Sc2ccccc2S3)oc(N2CCOCC2)c1 + Cc1nc(Nc2ncc(C(=O)Nc3c(C)cccc3Cl)s2)cc(N2CCN(CCO)CC2)n1 [Dasatinib] (partner 0.075 µM)
Reply: band A

----------
Below: a set of entries, each annotated with reported relative viability.
# Test system: NCI-H650
# ASSAY: relative viability (nuclei count vs DMSO), 5 days (fraction); higher = more cells survive
# ASSAY_CONTEXT: first compound 6.325 µM
Give the figure only, with no unit attached.

Use the examples below as a reference point.
{"COMPOUND": "COCC1(CO)C(=O)C2CCN1CC2 (stereo unspecified) [PRIMA-1MET] + Cc1cc(Nc2cc(N3CCN(C)CC3)nc(Sc3ccc(NC(=O)C4CC4)cc3)n2)n[nH]1 [Tozasertib] (partner 0.1 µM)", "relative viability": 0.749}
{"COMPOUND": "COCC1(CO)C(=O)C2CCN1CC2 (stereo unspecified) [PRIMA-1MET] + COc1cccc2cc(-c3nc([C@H]4CC[C@H](C(=O)O)CC4)n4ncnc(N)c34)[nH]c12 [OSI-027] (partner 0.5 µM)", "relative viability": 0.603}
{"COMPOUND": "COCC1(CO)C(=O)C2CCN1CC2 (stereo unspecified) [PRIMA-1MET] + CC(=O)Nc1cccc(-n2c(=O)n(C3CC3)c(=O)c3c(Nc4ccc(I)cc4F)n(C)c(=O)c(C)c32)c1 [Trametinib] (partner 0.02 µM)", "relative viability": 0.833}
{"COMPOUND": "COCC1(CO)C(=O)C2CCN1CC2 (stereo unspecified) [PRIMA-1MET] + CC(=O)c1c(C)c2cnc(Nc3ccc(N4CCNCC4)cn3)nc2n(C2CCCC2)c1=O [Palbociclib] (partner 0.5 µM)", "relative viability": 0.338}
{"COMPOUND": "COCC1(CO)C(=O)C2CCN1CC2 (stereo unspecified) [PRIMA-1MET] + Cc1nc(Nc2ncc(C(=O)Nc3c(C)cccc3Cl)s2)cc(N2CCN(CCO)CC2)n1 [Dasatinib] (partner 0.075 µM)", "relative viability": 0.472}

Task item: Which relative viability value is on record for COCC1(CO)C(=O)C2CCN1CC2 (stereo unspecified) [PRIMA-1MET] + C[C@@H](Oc1cc(-c2cnn(C3CCNCC3)c2)cnc1N)c1c(Cl)ccc(F)c1Cl [Crizotinib] (partner 1 µM) ?
Reply: 0.675

----------
# Tested on: HOP-62
# ASSAY: relative viability (nuclei count vs DMSO), 5 days (fraction); higher = more cells survive
# ASSAY_CONTEXT: first compound 2 µM
Item-by-item account of relative viability
Please reply with the number alone, leaving off any unit.

Task item: Given the entry COCC1(CO)C(=O)C2CCN1CC2 (configuration not stated) [PRIMA-1MET] + CS(=O)(=O)CCNCc1ccc(-c2ccc3ncnc(Nc4ccc(OCc5cccc(F)c5)c(Cl)c4)c3c2)o1 [Lapatinib] (partner 2 µM) , report its measured relative viability.
Reply: 0.887

Task item: # get_value(readout='relative viability', item= COCC1(CO)C(=O)C2CCN1CC2 (configuration not stated) [PRIMA-1MET] + Nc1nc2[nH]cc(CCc3ccc(C(=O)N[C@@H](CCC(=O)O)C(=O)O)cc3)c2c(=O)[nH]1 [Pemetrexed] (partner 0.2 µM) )
Reply: 0.36

Task item: What measured relative viability goes with COCC1(CO)C(=O)C2CCN1CC2 (configuration not stated) [PRIMA-1MET] + N=C(N)NC(=N)NCCc1ccccc1 [Phenformin] (partner 250 µM) ?
Reply: 0.648

Task item: Give its relative viability value. Item: COCC1(CO)C(=O)C2CCN1CC2 (configuration not stated) [PRIMA-1MET] + Nc1ncn([C@H]2C[C@H](O)[C@@H](CO)O2)c(=O)n1 [Decitabine] (partner 2 µM)
Reply: 0.207

Task item: I am curious: what relative viability value has been reported for COCC1(CO)C(=O)C2CCN1CC2 (configuration not stated) [PRIMA-1MET] + CC(=O)Nc1cccc(-n2c(=O)n(C3CC3)c(=O)c3c(Nc4ccc(I)cc4F)n(C)c(=O)c(C)c32)c1 [Trametinib] (partner 0.02 µM) ?
Reply: 0.334

Task item: // lookup relative viability for COCC1(CO)C(=O)C2CCN1CC2 (configuration not stated) [PRIMA-1MET] + CC(=O)c1c(C)c2cnc(Nc3ccc(N4CCNCC4)cn3)nc2n(C2CCCC2)c1=O [Palbociclib] (partner 0.5 µM)
Reply: 0.469

Task item: Recorded relative viability for COCC1(CO)C(=O)C2CCN1CC2 (configuration not stated) [PRIMA-1MET] + O=C(CCCCCCC(=O)Nc1ccccc1)NO [Vorinostat] (partner 1 µM) , please?
Reply: 0.488
